B1: Nrd1 CID [S. cerevisiae] / Sen1 NIM peptide, FAM-labelled [modified: 5,6-carboxyfluorescein (FAM) on the N-terminus; 5,6-carboxyfluorescein (FAM) on the N-terminus] [S. cerevisiae] (parent complex)
chain 1: MQQDDDFQNFVATLESFKDLKSGISGSRIKKLTTYALDHIDIESKIISLIIDYSRLCPDSHKLGSLYIIDSIGRAYLDETRSNSNSSSNKPGTCAHAINTLGEVIQELLSDAIAKSNQDHKEKIRMLLDIWDRSGLFQKSYLNAIRSKCFAMD
chain 2: DDDEDDYTPSIS

# Variants of: B1
# TEST PROTOCOL: fluorescence anisotropy (FA); parent: 1.2e+03 nM
EXPERIMENTAL ENDPOINT: pKd
// pKd is dimensionless: -log10 of concentration (M)

IN: Need pKd of chain 1 I130A , thanks.
OUT: 5.13
